Origin of the recorded values: paper PMC12385147

- assay.explanation: Plasma protein binding, equilibrium dialysis, human plasma
- Format: in vitro ADME
- condition.context: human, plasma, human plasma, 1 μM, fraction; read-out: Mean Fu
measured.parameter: fraction unbound at 6 h, 1 μM
// return a plain number; no unit text

// fraction unbound at 6 h, 1 μM lookup, key: Cc1c(C(=O)Nc2ccc(Oc3ccnc(Nc4cccc(OC5CCN(C)CC5)c4)n3)cc2)c(=O)n(-c2ccccc2)n1C [compound 17c] 0.0158

* * *

- assay.explanation: Pharmacokinetics in SD rats
- Assay type: in vivo
- condition.context: both sexes, rat, plasma, po; SD rats, p.o., 10 mg/kg; read-out: MRTINF_obs
- Protocol: Male and female SD rats (SLRC Laboratory Animal Inc., Shanghai, China) were used for the study. In the oral (PO) administration, 3 rats per group were given a single 10 mg/kg dose. Blood samples (100 μL per time point) were collected via jugular vein cannula and taken at 5, 15, and 30 min, and 1, 2, 4, 8, and 24 h post-dose. […] Compound concentrations were determined by LC/MS/MS (Shimadzu LC-30AD), and pharmacokinetic parameters, including Cmax, Tmax, T1/2, and AUC0-inf, were calculated.
measured.parameter: MRT inf (h)
Note: unit h is implicit; provide only the numeric part.

// MRT inf lookup, key: Cc1c(C(=O)Nc2ccc(Oc3ccnc(Nc4cccc(OC5CCN(C)CC5)c4)n3)cc2)c(=O)n(-c2ccccc2)n1C [compound 17c] 6.52
